- target-under-test: human cMET (human, UniProt P08581 25-932)
- Sequence (P08581 25-932 limits assumed): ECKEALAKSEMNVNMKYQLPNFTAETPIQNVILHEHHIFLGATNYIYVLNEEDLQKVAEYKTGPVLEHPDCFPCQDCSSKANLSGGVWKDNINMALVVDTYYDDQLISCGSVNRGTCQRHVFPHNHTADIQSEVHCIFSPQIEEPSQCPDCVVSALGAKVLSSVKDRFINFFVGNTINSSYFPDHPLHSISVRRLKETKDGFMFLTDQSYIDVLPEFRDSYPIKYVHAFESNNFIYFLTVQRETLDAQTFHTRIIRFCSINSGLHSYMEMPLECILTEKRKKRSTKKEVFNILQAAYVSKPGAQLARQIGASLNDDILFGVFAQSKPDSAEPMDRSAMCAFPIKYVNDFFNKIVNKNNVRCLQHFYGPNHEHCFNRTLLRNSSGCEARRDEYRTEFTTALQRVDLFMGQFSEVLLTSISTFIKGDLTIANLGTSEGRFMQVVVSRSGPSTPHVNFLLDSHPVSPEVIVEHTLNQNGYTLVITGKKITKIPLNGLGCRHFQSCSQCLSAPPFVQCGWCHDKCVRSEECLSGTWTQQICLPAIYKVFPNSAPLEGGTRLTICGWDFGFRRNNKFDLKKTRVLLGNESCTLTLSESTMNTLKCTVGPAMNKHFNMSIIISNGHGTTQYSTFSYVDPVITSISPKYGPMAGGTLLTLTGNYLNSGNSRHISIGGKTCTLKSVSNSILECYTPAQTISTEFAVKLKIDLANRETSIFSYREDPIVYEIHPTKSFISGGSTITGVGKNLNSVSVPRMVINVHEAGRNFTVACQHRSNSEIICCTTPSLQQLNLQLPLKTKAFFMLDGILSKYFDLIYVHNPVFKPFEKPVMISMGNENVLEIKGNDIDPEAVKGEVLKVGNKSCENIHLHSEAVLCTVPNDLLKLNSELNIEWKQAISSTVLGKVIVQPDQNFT
- assay-summary: phage TRF on cMET
readout: TRF signal

1. KB_A12_cMET_F10 (scFv, V domains shown) VH: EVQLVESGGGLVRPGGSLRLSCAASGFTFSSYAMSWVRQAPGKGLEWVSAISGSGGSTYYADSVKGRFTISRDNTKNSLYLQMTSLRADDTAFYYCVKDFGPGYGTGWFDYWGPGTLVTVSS VL: AVNWYQQLPGKAPKLLIYAAGRCRSLMSGTGRCKQDSDCLAGCVCGPNGFCGANSGVSDRFSAAKSGTSASLAINGLRSEDEADYYCAAWDDSLNGYVFGTGTKLTVLG	51300
2. KB_A12_cMET_H01 (scFv, V domains shown) VH: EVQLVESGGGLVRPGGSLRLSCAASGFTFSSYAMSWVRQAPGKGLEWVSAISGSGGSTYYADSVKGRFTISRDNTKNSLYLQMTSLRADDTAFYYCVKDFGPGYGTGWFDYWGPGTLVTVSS VL: AVNWYQQLPGKAPKLLIYAAGRCHRMSGTGRCKQDSDCLAGCVCGPNGFCGANSGVSDRFSAAKSGTSASLAINGLRSEDEADYYCAAWDDSLNGYVFGTGTKLTVLG	132000
3. KB_A12_cMET_E07 (scFv, V domains shown) VH: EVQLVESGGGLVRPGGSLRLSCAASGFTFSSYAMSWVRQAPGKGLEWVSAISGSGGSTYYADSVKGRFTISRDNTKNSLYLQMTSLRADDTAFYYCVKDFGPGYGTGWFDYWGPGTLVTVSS VL: AVNWYQQLPGKAPKLLIYAAGRCPKRHTGTGRCKQDSDCLAGCVCGPNGFCGANSGVSDRFSAAKSGTSASLAINGLRSEDEADYYCAAWDDSLNGYVFGTGTKLTVLG	95300
4. KB_A12_cMET_G07 (scFv, V domains shown) VH: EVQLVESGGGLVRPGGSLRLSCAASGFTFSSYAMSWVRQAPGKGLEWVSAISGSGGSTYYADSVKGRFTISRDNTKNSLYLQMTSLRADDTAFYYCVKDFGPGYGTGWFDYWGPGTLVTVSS VL: AVNWYQQLPGKAPKLLIYAAGRCRASSGTGRCKQDSDCLAGCVCGPNGFCGANSGVSDRFSAAKSGTSASLAINGLRSEDEADYYCAAWDDSLNGYVFGTGTKLTVLG	58000
5. KB_A12_cMET_E02 (scFv, V domains shown) VH: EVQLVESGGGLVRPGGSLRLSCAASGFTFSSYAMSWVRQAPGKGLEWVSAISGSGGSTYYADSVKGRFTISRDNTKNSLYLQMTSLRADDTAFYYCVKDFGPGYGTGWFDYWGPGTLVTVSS VL: AVNWYQQLPGKAPKLLIYAAGRCRKKSGANRCKQDSDCLAGCVCGPNGFCGANSGVSDRFSAAKSGTSASLAINGLRSEDEADYYCAAWDDSLNGYVFGTGTKLTVLG	9480
